# Tested on: RAW264.7
# experiment: Cytotoxicity against mouse RAW264.7 cells assessed as reduction in cell viability at 30 uM incubated for 24 hrs by MTT assay relative to control
# Assay type: toxicity, cell-based
# settings: raw264.7, 24 h
For each entry below, report its Activity value.
Write the value in % as a bare number.

Req: Give measured Activity for COc1ccc(-c2nnc(COC(=O)/C(CCC=C(C)C)=C3\[C@@H](OC(C)=O)C[C@@]4(C)[C@H]3C[C@@H](O)[C@H]3[C@@]5(C)CC[C@@H](O)[C@@H](C)[C@@H]5CC[C@@]34C)o2)cc1 (RAW264.7).
Resp: 101.7

Req: Give measured Activity for CC(=O)O[C@H]1C[C@@]2(C)[C@@H](C[C@@H](O)[C@H]3[C@@]4(C)CC[C@@H](O)[C@@H](C)[C@@H]4CC[C@@]32C)/C1=C(\CCC=C(C)C)C(=O)OCc1cc(-c2ccc(F)cc2)no1 (RAW264.7).
Resp: 103.63

Req: Give measured Activity for COc1ccc(-c2cc(COC(=O)/C(CCC=C(C)C)=C3\[C@@H](OC(C)=O)C[C@@]4(C)[C@H]3C[C@@H](O)[C@H]3[C@@]5(C)CC[C@@H](O)[C@@H](C)[C@@H]5CC[C@@]34C)on2)cc1OC (RAW264.7).
Resp: 100.7

Req: Give measured Activity for CC(=O)O[C@H]1C[C@@]2(C)[C@@H](C[C@@H](O)[C@H]3[C@@]4(C)CC[C@@H](O)[C@@H](C)[C@@H]4CC[C@@]32C)/C1=C(\CCC=C(C)C)C(=O)OCc1cn(Cc2ccc(C)cc2)nn1 (RAW264.7).
Resp: 105.96

Req: Give measured Activity for CC(=O)O[C@H]1C[C@@]2(C)[C@@H](C[C@@H](O)[C@H]3[C@@]4(C)CC[C@@H](O)[C@@H](C)[C@@H]4CC[C@@]32C)/C1=C(\CCC=C(C)C)C(=O)OCc1cc(-c2ccc(Br)cc2)no1 (RAW264.7).
Resp: 96.29

Req: Give measured Activity for CC(=O)O[C@H]1C[C@@]2(C)[C@@H](C[C@@H](O)[C@H]3[C@@]4(C)CC[C@@H](O)[C@@H](C)[C@@H]4CC[C@@]32C)/C1=C(\CCC=C(C)C)C(=O)OCc1cc(-c2ccccc2)no1 (RAW264.7).
Resp: 104.11

Req: Give measured Activity for CC(=O)O[C@H]1C[C@@]2(C)[C@@H](C[C@@H](O)[C@H]3[C@@]4(C)CC[C@@H](O)[C@@H](C)[C@@H]4CC[C@@]32C)/C1=C(\CCC=C(C)C)C(=O)OCc1cn(Cc2ccccc2)nn1 (RAW264.7).
Resp: 98.53

Req: Give measured Activity for CC(=O)O[C@H]1C[C@@]2(C)[C@@H](C[C@@H](O)[C@H]3[C@@]4(C)CC[C@@H](O)[C@@H](C)[C@@H]4CC[C@@]32C)/C1=C(\CCC=C(C)C)C(=O)OCc1nnc(-c2ccc(Cl)cc2)o1 (RAW264.7).
Resp: 103.01

Req: Give measured Activity for CC(=O)O[C@H]1C[C@@]2(C)[C@@H](C[C@@H](O)[C@H]3[C@@]4(C)CC[C@@H](O)[C@@H](C)[C@@H]4CC[C@@]32C)/C1=C(\CCC=C(C)C)C(=O)OCc1nnc(-c2ccc([N+](=O)[O-])cc2)o1 (RAW264.7).
Resp: 103.17

Req: Give measured Activity for CC(=O)O[C@H]1C[C@@]2(C)[C@@H](C[C@@H](O)[C@H]3[C@@]4(C)CC[C@@H](O)[C@@H](C)[C@@H]4CC[C@@]32C)/C1=C(\CCC=C(C)C)C(=O)OCc1cn(-c2ccc([N+](=O)[O-])cc2)nn1 (RAW264.7).
Resp: 101.62

Req: Give measured Activity for CC(=O)O[C@H]1C[C@@]2(C)[C@@H](C[C@@H](O)[C@H]3[C@@]4(C)CC[C@@H](O)[C@@H](C)[C@@H]4CC[C@@]32C)/C1=C(\CCC=C(C)C)C(=O)OCc1nnc(-c2ccc(F)cc2)o1 (RAW264.7).
Resp: 102.47

Req: Give measured Activity for CC(=O)O[C@H]1C[C@@]2(C)[C@@H](C[C@@H](O)[C@H]3[C@@]4(C)CC[C@@H](O)[C@@H](C)[C@@H]4CC[C@@]32C)/C1=C(\CCC=C(C)C)C(=O)OCc1cn(-c2ccc(Br)cc2)nn1 (RAW264.7).
Resp: 92.58

Req: Give measured Activity for COc1cc(-n2cc(COC(=O)/C(CCC=C(C)C)=C3\[C@@H](OC(C)=O)C[C@@]4(C)[C@H]3C[C@@H](O)[C@H]3[C@@]5(C)CC[C@@H](O)[C@@H](C)[C@@H]5CC[C@@]34C)nn2)cc(OC)c1OC (RAW264.7).
Resp: 98.92

Req: Give measured Activity for CC(=O)O[C@H]1C[C@@]2(C)[C@@H](C[C@@H](O)[C@H]3[C@@]4(C)CC[C@@H](O)[C@@H](C)[C@@H]4CC[C@@]32C)/C1=C(\CCC=C(C)C)C(=O)OCc1cn(Cc2ccc(Cl)cc2)nn1 (RAW264.7).
Resp: 90.57

Req: Give measured Activity for CC(=O)O[C@H]1C[C@@]2(C)[C@@H](C[C@@H](O)[C@H]3[C@@]4(C)CC[C@@H](O)[C@@H](C)[C@@H]4CC[C@@]32C)/C1=C(\CCC=C(C)C)C(=O)OCc1cn(-c2ccc(Cl)c(Cl)c2)nn1 (RAW264.7).
Resp: 104.17

Req: Give measured Activity for COc1ccc(-n2cc(COC(=O)/C(CCC=C(C)C)=C3\[C@@H](OC(C)=O)C[C@@]4(C)[C@H]3C[C@@H](O)[C@H]3[C@@]5(C)CC[C@@H](O)[C@@H](C)[C@@H]5CC[C@@]34C)nn2)cc1OC (RAW264.7).
Resp: 102.78

Req: Give measured Activity for COc1cc(-c2cc(COC(=O)/C(CCC=C(C)C)=C3\[C@@H](OC(C)=O)C[C@@]4(C)[C@H]3C[C@@H](O)[C@H]3[C@@]5(C)CC[C@@H](O)[C@@H](C)[C@@H]5CC[C@@]34C)on2)cc(OC)c1OC (RAW264.7).
Resp: 95.67

Req: Give measured Activity for COc1cc(-c2nnc(COC(=O)/C(CCC=C(C)C)=C3\[C@@H](OC(C)=O)C[C@@]4(C)[C@H]3C[C@@H](O)[C@H]3[C@@]5(C)CC[C@@H](O)[C@@H](C)[C@@H]5CC[C@@]34C)o2)cc(OC)c1OC (RAW264.7).
Resp: 97.84
